Biological target: Type-1 angiotensin II receptor (Oryctolagus cuniculus)
Sequence (P34976 whole entry): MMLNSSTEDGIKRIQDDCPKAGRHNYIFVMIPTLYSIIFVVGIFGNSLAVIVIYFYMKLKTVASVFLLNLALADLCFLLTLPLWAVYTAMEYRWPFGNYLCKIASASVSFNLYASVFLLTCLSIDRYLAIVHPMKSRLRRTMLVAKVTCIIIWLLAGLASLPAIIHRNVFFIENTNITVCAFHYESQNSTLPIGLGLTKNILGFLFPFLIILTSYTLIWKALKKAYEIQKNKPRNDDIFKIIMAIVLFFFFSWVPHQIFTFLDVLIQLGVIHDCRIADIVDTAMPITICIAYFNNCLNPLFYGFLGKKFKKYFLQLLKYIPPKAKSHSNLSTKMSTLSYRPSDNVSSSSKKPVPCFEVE
Test: pA2 value determined in vitro against angiotensin II receptor, type 1 using rabbit aortic rings
Settings: read-out: pA2 (converted)
Exercise: for every item that follows, state its recorded Kb.
Expressed in µM, but write only the number.

Per the record, "CCCN(Cc1ccc(-c2ccccc2-c2nn[nH]n2)cc1)c1[nH]cnc2nncc1-2" has Kb of 0.339

// Kb lookup, compound = "CCCN(Cc1ccc(-c2ccccc2-c2nnn[nH]2)cc1)c1ncnc2ncn(CC(=O)O)c12" , result: 0.0741

Kb in this record for "CCCCN(Cc1ccc(-c2ccccc2-c2nn[nH]n2)cc1)c1[nH]cnc2nc(C)nc1-2" : 0.00776

Looking up "CCCCN(Cc1ccc(-c2ccccc2-c2nnn[nH]2)cc1)c1ncnc2c1nc(CC)n2C" , I found its Kb recorded as 0.0302

Source: ChEMBL document CHEMBL1127868
